# normalised response annotations
system: Hs578T; test: normalised response (% of control), CellTiter-Glo; higher = more viable cells (100 = DMSO, 0 = benzethonium chloride kill control); conditions: incubation time: 72 h
All answers are understood in %, so give the number only.

Some solved entries appear below for comparison.
- MOLECULE: "CC[C@]1(O)C[C@H]2CN(CCc3c([nH]c4ccccc34)[C@@](C(=O)OC)(c3cc4c(cc3OC)N(C=O)[C@H]3[C@@](O)(C(=O)OC)[C@H](OC(C)=O)[C@]5(CC)C=CCN6CC[C@]43[C@@H]65)C2)C1 [Vincristine] (10 nM)"
  TESTED_TARGET: "Hs578T"
  UNITS_TEXT: "%"
  RESULT: 82.6
- MOLECULE: "Cc1ccc(NC(=O)c2ccc(CN3CCN(C)CC3)cc2)cc1Nc1nccc(-c2cccnc2)n1 [Imatinib] (100 nM)"
  TESTED_TARGET: "Hs578T"
  UNITS_TEXT: "%"
  RESULT: 106
- MOLECULE: "CC(C)c1c(C(=O)Nc2ccccc2)c(-c2ccccc2)c(-c2ccc(F)cc2)n1CC[C@@H](O)C[C@@H](O)CC(=O)O [Atorvastatin] (100 nM)"
  TESTED_TARGET: "Hs578T"
  UNITS_TEXT: "%"
  RESULT: 102
- MOLECULE: "O=C(O)CCCc1ccc(N(CCCl)CCCl)cc1 [Chlorambucil] (100 nM)"
  TESTED_TARGET: "Hs578T"
  UNITS_TEXT: "%"
  RESULT: 102
- MOLECULE: "CNNCc1ccc(C(=O)NC(C)C)cc1 [Procarbazine] (100 nM)"
  TESTED_TARGET: "Hs578T"
  UNITS_TEXT: "%"
  RESULT: 104

Turning now to a further molecule:
// query Requested field: normalised response. Item: CO[C@H]1C[C@@H]2CC[C@@H](C)[C@@](O)(O2)C(=O)C(=O)N2CCCC[C@H]2C(=O)O[C@H]([C@H](C)C[C@@H]2CC[C@@H](OCCO)[C@H](OC)C2)CC(=O)[C@H](C)/C=C(\C)[C@@H](O)[C@@H](OC)C(=O)[C@H](C)C[C@H](C)/C=C/C=C/C=C/1C [Everolimus] (1 nM)
// result 70.6

---

# drug sensitivity score annotations
tested on: DU-4475; experiment: drug sensitivity score (DSS), CellTiter-Blue viability (DSS (AUC-based score)); higher = stronger viability inhibition; extreme values may be limits of the assay; conditions: incubation time: 72 h
Respond with the number and no other words.

Some solved entries appear below for comparison.
- SMILES: "CN1CCN(CCOc2cc(OC3CCOCC3)c3c(Nc4c(Cl)ccc5c4OCO5)ncnc3c2)CC1"
  drug sensitivity score: 0
- SMILES: "C[C@]12CC[C@H](O)CC1=CC[C@@H]1[C@@H]2CC[C@]2(C)C(c3cccnc3)=CC[C@@H]12"
  drug sensitivity score: 0
- SMILES: "C/C(=C\\c1csc(C)n1)[C@@H]1C[C@@H]2O[C@]2(C)CCC[C@H](C)[C@H](O)[C@@H](C)C(=O)C(C)(C)[C@@H](O)CC(=O)O1"
  drug sensitivity score: 22.3

Turning now to a further compound:
// query // lookup drug sensitivity score | system=DU-4475 | key= "Cn1c(=O)n(-c2ccc(C(C)(C)C#N)cc2)c2c3cc(-c4cnc5ccccc5c4)ccc3ncc21"
// result 13.5
